// endpoint MIC / system S. pyogenes JCM5674(ATCC12344)
Answers are plain numbers, in µg/mL.

# count of solved cases: 3
Asked: Would you kindly share the measured MIC for COc1c(N2C[C@@H]3CCCC[C@@]3(N)C2)c(F)cc2c(=O)c(C(=O)O)cn([C@@H]3C[C@@H]3F)c12 [Example 31] ?
Given back: 0.025

Asked: Would you kindly share the measured MIC for Cc1c(N2C[C@]3(N)CCC[C@]3(F)C2)c(F)cc2c(=O)c(C(=O)O)cn([C@@H]3C[C@@H]3F)c12 [Example 17] ?
Given back: 0.025

Asked: Would you kindly share the measured MIC for COc1c(N2C[C@H]3[C@H](C)C[C@@]3(N)C2)c(F)cc2c(=O)c(C(=O)O)cn([C@@H]3C[C@@H]3F)c12 [Example 5] ?
Given back: 0.05

Below are 2 compounds. Give each one its MIC.
1. COc1c(N2C[C@@H]3COCC[C@@]3(N)C2)c(F)cc2c(=O)c(C(=O)O)cn([C@@H]3C[C@@H]3F)c12 [Example 37]
2. COc1c(N2C[C@]3(N)CCC[C@]3(F)C2)c(F)cc2c(=O)c(C(=O)O)cn([C@@H]3C[C@@H]3F)c12 [Example 15]

Given back:
[0.05, 0.05]

Below are 5 compounds. Give each one its MIC.
1. Cc1c(N2C[C@@H]3CCOC[C@@]3(N)C2)c(F)cc2c(=O)c(C(=O)O)cn([C@@H]3C[C@@H]3F)c12 [Example 44]
2. COc1c(N2C[C@@H]3CCOC[C@@]3(N)C2)c(F)cc2c(=O)c(C(=O)O)cn([C@@H]3C[C@@H]3F)c12 [Example 43]
3. C[C@H]1COc2c(N3C[C@@H]4CCCC[C@@]4(N)C3)c(F)cc3c(=O)c(C(=O)O)cn1c23 [Example 34]
4. COc1c(N2C[C@@H]3CCCN[C@@H]3C2)c(F)cc2c(=O)c(C(=O)O)cn(C3CC3)c12 [MXFX, moxifloxacin, reference compound]
5. COc1c(N2C[C@H]3[C@@H](C)C[C@@]3(N)C2)c(F)cc2c(=O)c(C(=O)O)cn([C@@H]3C[C@@H]3F)c12 [Example 2]

Given back:
[0.05, 0.05, 0.05, 0.2, 0.025]

* * *

Counter-ions that a name gives are not always drawn.
assay_endpoint: melting point

# count of solved cases: 8
Asked: Would you kindly share the measured melting point for COc1c(N2C[C@]3(N)CC[C@]3(F)C2)c(F)cc2c(=O)c(C(=O)O)cn([C@@H]3C[C@@H]3F)c12 [Example 6] ?
Given back: 235 °C (dec.)

Asked: Would you kindly share the measured melting point for C[C@H]1COc2c(N3C[C@@H]4CCOC[C@@]4(N)C3)c(F)cc3c(=O)c(C(=O)O)cn1c23 [Example 42] ?
Given back: > 300 °C

Asked: Would you kindly share the measured melting point for COc1c(N2C[C@H]3C(F)(F)CC[C@@]3(N)C2)c(F)cc2c(=O)c(C(=O)O)cn([C@@H]3C[C@@H]3F)c12 [Example 22] ?
Given back: 239 to 241 °C

Asked: Would you kindly share the measured melting point for COc1c(N2C[C@]3(N)CCC[C@]3(F)C2)c(F)cc2c(=O)c(C(=O)O)cn([C@@H]3C[C@@H]3F)c12 [Example 15] ?
Given back: 191 to 195 °C (dec.)

Asked: Would you kindly share the measured melting point for Cc1c(N2CC3(N)CCC4CC43C2)ccc2c(=O)c(C(=O)O)cn([C@@H]3C[C@@H]3F)c12 (single isomer, unassigned) [Example 55] ?
Given back: > 254 °C (dec.)

Asked: Would you kindly share the measured melting point for Cc1c(N2C[C@H]3C(CF)C[C@@]3(N)C2)c(F)cc2c(=O)c(C(=O)O)cn([C@@H]3C[C@@H]3F)c12 (single isomer, unassigned) [Example 51] ?
Given back: 130 to 133 °C

Asked: Would you kindly share the measured melting point for N#Cc1c(N2C[C@]3(N)CCC[C@]3(F)C2)c(F)cc2c(=O)c(C(=O)O)cn([C@@H]3C[C@@H]3F)c12 [Example 14] ?
Given back: 268 to 280 °C (dec.)

Asked: Would you kindly share the measured melting point for COc1c(N2CC3(N)CCC4CC43C2)c(F)cc2c(=O)c(C(=O)O)cn([C@@H]3C[C@@H]3F)c12 (stereo partly shown) (as salt: methanesulfonate) [Example 57] ?
Given back: 202 to 204 °C

Below are 5 compounds. Give each one its melting point.
1. COc1c(N2C[C@H]3C(CF)C[C@@]3(N)C2)c(F)cc2c(=O)c(C(=O)O)cn([C@@H]3C[C@@H]3F)c12 (single isomer, unassigned) [Example 50]
2. COc1c(N2C[C@H]3[C@@H](F)CC[C@@]3(N)C2)c(F)cc2c(=O)c(C(=O)O)cn([C@@H]3C[C@@H]3F)c12 [Example 21]
3. COc1c(N2CC3(C)CCC3(N)C2)c(F)cc2c(=O)c(C(=O)O)cn([C@@H]3C[C@@H]3F)c12 (stereo in doubt) [Example 7]
4. COc1c(N2CC3(Cl)CCC[C@@]3(N)C2)c(F)cc2c(=O)c(C(=O)O)cn([C@@H]3C[C@@H]3F)c12 (stereo in doubt) [Example 53]
5. COc1c(N2C[C@H]3CC=C[C@@]3(N)C2)c(F)cc2c(=O)c(C(=O)O)cn([C@@H]3C[C@@H]3F)c12 [Example 24]

Given back:
1. 193 to 195 °C
2. 117 to 119 °C
3. 123 to 125 °C
4. 161 to 163 °C
5. 206 to 208 °C

* * *

- System: S. epidermidis 56500
Values of MIC strictly less than 0.05 µg/mL map to True, and values of at least 0.05 µg/mL map to False.

Worked examples, 5 compounds total:
Asked: Find out if reported MIC for COc1c(N2CC3=CCCC3(N)C2)c(F)cc2c(=O)c(C(=O)O)cn([C@@H]3C[C@@H]3F)c12 (single isomer, unassigned) [Example 25] is less than 0.05 µg/mL
Given back: False

Asked: Find out if reported MIC for Cc1c(N2C[C@@H]3CCOC[C@@]3(N)C2)c(F)cc2c(=O)c(C(=O)O)cn([C@@H]3C[C@@H]3F)c12 [Example 44] is less than 0.05 µg/mL
Given back: True

Asked: Find out if reported MIC for COc1c(N2C[C@@H]3COCC[C@@]3(N)C2)c(F)cc2c(=O)c(C(=O)O)cn([C@@H]3C[C@@H]3F)c12 [Example 37] is less than 0.05 µg/mL
Given back: True

Asked: Find out if reported MIC for COc1c(N2C[C@H]3[C@H](C)C[C@@]3(N)C2)c(F)cc2c(=O)c(C(=O)O)cn([C@@H]3C[C@@H]3F)c12 [Example 5] is less than 0.05 µg/mL
Given back: True

Asked: Find out if reported MIC for COc1c(N2C[C@@H]3CCCN[C@@H]3C2)c(F)cc2c(=O)c(C(=O)O)cn(C3CC3)c12 [MXFX, moxifloxacin, reference compound] is less than 0.05 µg/mL
Given back: False

---
Asked: Find out if reported MIC for O=C(O)c1cn(C2CC2)c2cc(N3CCNCC3)c(F)cc2c1=O [CPFX, ciprofloxacin, reference compound] is less than 0.05 µg/mL
Given back: False

Asked: Find out if reported MIC for COc1c(N2C[C@H]3CC=C[C@@]3(N)C2)c(F)cc2c(=O)c(C(=O)O)cn([C@@H]3C[C@@H]3F)c12 [Example 24] is less than 0.05 µg/mL
Given back: False

Asked: Find out if reported MIC for COc1c(N2C[C@H]3C4(CC4)C[C@@]3(N)C2)c(F)cc2c(=O)c(C(=O)O)cn([C@@H]3C[C@@H]3F)c12 [Example 10] is less than 0.05 µg/mL
Given back: True

* * *

- Test system: P. mirabilis 08103
assay_endpoint: MIC (µg/mL)
Give bare numbers, in µg/mL.

Asked: Would you kindly share the measured MIC for Cc1c(N2C[C@@H]3CCOC[C@@]3(N)C2)c(F)cc2c(=O)c(C(=O)O)cn([C@@H]3C[C@@H]3F)c12 ?
Given back: 0.025

Asked: Would you kindly share the measured MIC for COc1c(N2C[C@@H]3CCCN[C@@H]3C2)c(F)cc2c(=O)c(C(=O)O)cn(C3CC3)c12 [MXFX, moxifloxacin, reference compound] ?
Given back: 0.025

Asked: Would you kindly share the measured MIC for COc1c(N2C[C@@H]3COCC[C@@]3(N)C2)c(F)cc2c(=O)c(C(=O)O)cn([C@@H]3C[C@@H]3F)c12 ?
Given back: 0.05

Below are 7 molecules. Give each one its MIC.
1. COc1c(N2C[C@@H]3CCC[C@]3(N)C2)c(F)cc2c(=O)c(C(=O)O)cn([C@@H]3C[C@@H]3F)c12 (single isomer, unassigned)
2. COc1c(N2C[C@H]3[C@H](C)C[C@@]3(N)C2)c(F)cc2c(=O)c(C(=O)O)cn([C@@H]3C[C@@H]3F)c12
3. COc1c(N2C[C@@H]3CC=CC[C@@]3(N)C2)c(F)cc2c(=O)c(C(=O)O)cn([C@@H]3C[C@@H]3F)c12
4. COc1c(N2C[C@]3(N)CCC[C@]3(F)C2)c(F)cc2c(=O)c(C(=O)O)cn([C@@H]3C[C@@H]3F)c12
5. Cc1c(N2C[C@]3(N)CCC[C@]3(F)C2)c(F)cc2c(=O)c(C(=O)O)cn([C@@H]3C[C@@H]3F)c12
6. COc1c(N2C[C@@H]3CCOC[C@@]3(N)C2)c(F)cc2c(=O)c(C(=O)O)cn([C@@H]3C[C@@H]3F)c12
7. COc1c(N2C[C@H]3CC=C[C@@]3(N)C2)c(F)cc2c(=O)c(C(=O)O)cn([C@@H]3C[C@@H]3F)c12

Given back:
1. 0.05
2. 0.025
3. 0.025
4. 0.025
5. 0.006
6. 0.025
7. 0.025

Below are 3 molecules. Give each one its MIC.
1. COc1c(N2C[C@@H]3CCCC[C@@]3(N)C2)c(F)cc2c(=O)c(C(=O)O)cn([C@@H]3C[C@@H]3F)c12
2. C[C@H]1COc2c(N3C[C@@H]4CCCC[C@@]4(N)C3)c(F)cc3c(=O)c(C(=O)O)cn1c23
3. COc1c(N2C[C@H]3C4(CC4)C[C@@]3(N)C2)c(F)cc2c(=O)c(C(=O)O)cn([C@@H]3C[C@@H]3F)c12

Given back:
1: 0.012; 2: 0.012; 3: 0.05

Below are 2 molecules. Give each one its MIC.
1. COc1c(N2CC3=CCCC3(N)C2)c(F)cc2c(=O)c(C(=O)O)cn([C@@H]3C[C@@H]3F)c12 (single isomer, unassigned)
2. C[C@H]1COc2c(N3CCN(C)CC3)c(F)cc3c(=O)c(C(=O)O)cn1c23 [LVFX, levofloxacin, reference compound]

Given back:
1: 0.025; 2: 0.025
